# Fbg listing for each entry below
Species on record: Rattus norvegicus
Assay: Open TG-GATES - Regimen: Single
Format: toxicity, organism-based, Sprague-Dawley
Design: regimen Single, gender Male, age 6 weeks
Conditions: in vivo, po, 100 mg/kg, 9 h, tissue Blood, route gavage, dose level Low
Quick note: give the figure in mg/dL, leave out the unit.

INSERT INTO assay_data (molecule, result_type, display_unit, result_value) VALUES
  ('COc1ccc2[nH]c([S+]([O-])Cc3ncc(C)c(OC)c3C)nc2c1 (centres undefined)', 'Fbg', 'mg/dL', 217.6),
  ('NC(N)=Nc1nc(CSCCC(N)=NS(N)(=O)=O)cs1', 'Fbg', 'mg/dL', 232.2),
  ('CCOC(=O)CCC(=O)O[C@H]1[C@H](O[C@@H]2[C@@H](C)[C@H](O[C@H]3C[C@@](C)(OC)[C@@H](O)[C@H](C)O3)[C@@H](C)C(=O)O[C@H](CC)[C@@](C)(O)[C@H](O)[C@@H](C)C(=O)[C@H](C)C[C@@]2(C)O)O[C@H](C)C[C@@H]1N(C)C [ERYTHROMYCIN ETHYLSUCCINATE]', 'Fbg', 'mg/dL', 315);

Prompt: Recorded Fbg of COC1=CC(=O)C[C@@H](C)[C@]12Oc1c(Cl)c(OC)cc(OC)c1C2=O , please.
Response: 222.6

###

Species on record: Rattus norvegicus
Assay: Open TG-GATES - Regimen: Single
Format: toxicity, organism-based, Sprague-Dawley
Design: regimen Single, gender Male, age 6 weeks
Details: in vivo, po, 0 mg/kg, 6 h, tissue Blood, route gavage, dose level Control
Measured APTT of individual entries
Your answer should be a plain number; it is taken to be in s.

Illustrative cases are given below, each with its answer.
INSERT INTO assay_data (molecule, result_type, result_value) VALUES
  ('O=C(CCCN1CCC(O)(c2ccc(Cl)cc2)CC1)c1ccc(F)cc1 [HALOPERIDOL]', 'APTT', 16.6),
  ('COC1=CC(=O)C[C@@H](C)[C@]12Oc1c(Cl)c(OC)cc(OC)c1C2=O [GRISEOFULVIN]', 'APTT', 18.8),
  ('CN(C)CCCN1c2ccccc2CCc2ccccc21 [IMIPRAMINE]', 'APTT', 15.5);

Prompt: # query: APTT of entry Cc1ccc(C)c(OCCCC(C)(C)C(=O)O)c1 [GEMFIBROZIL]
Response: 16.7

Prompt: COc1cc2c(c(OC)c1OC)-c1ccc(OC)c(=O)cc1[C@@H](NC(C)=O)CC2 [COLCHICINE] , same question.
Response: 16.3

###

Species: Rattus norvegicus
Test: Open TG-GATES - Regimen: Single
Assay type: toxicity, organism-based, Sprague-Dawley
Set-up: regimen Single, gender Male, age 6 weeks
Settings: in vivo, po, 100 mg/kg, 3 h, tissue Plasma, route gavage, dose level Low
BUN overview
Just the number in mg/dL, nothing appended.

INSERT INTO assay_data (compound, result_value) VALUES
  ('COC1=CC(=O)C[C@@H](C)[C@]12Oc1c(Cl)c(OC)cc(OC)c1C2=O', 10.2),
  ('COc1ccc2[nH]c([S+]([O-])Cc3ncc(C)c(OC)c3C)nc2c1 (centres undefined)', 11.6),
  ('NC(N)=Nc1nc(CSCCC(N)=NS(N)(=O)=O)cs1', 9.4);

Attention now shifts to the item below.
Prompt: For CCOC(=O)CCC(=O)O[C@H]1[C@H](O[C@@H]2[C@@H](C)[C@H](O[C@H]3C[C@@](C)(OC)[C@@H](O)[C@H](C)O3)[C@@H](C)C(=O)O[C@H](CC)[C@@](C)(O)[C@H](O)[C@@H](C)C(=O)[C@H](C)C[C@@]2(C)O)O[C@H](C)C[C@@H]1N(C)C [ERYTHROMYCIN ETHYLSUCCINATE] , what is its reported BUN?
Response: 12.8

###

Organism: Rattus norvegicus
Assay: Open TG-GATES - Regimen: Daily Repeat
Type: toxicity, organism-based, Sprague-Dawley
Design: regimen Daily Repeat, gender Male, age 6 weeks
Details: in vivo, po, 300 mg/kg, […], tissue Blood, route gavage, dose level Middle, time 14 day
Quick list: RBC per entry.
Number only, in x10_4/ul; omit the unit.

Prompt: Which value of RBC has been reported for COc1ccc2[nH]c([S+]([O-])Cc3ncc(C)c(OC)c3C)nc2c1 (stereo not given) in the records?
Response: 681.4

Prompt: Follow-up item: CCOc1ccc(NC(=O)CC(C)O)cc1 (stereo not given)
Response: 695.6

Prompt: Could you do the same for COC1=CC(=O)C[C@@H](C)[C@]12Oc1c(Cl)c(OC)cc(OC)c1C2=O , please?
Response: 682

Prompt: Subsequent entry: NC(N)=Nc1nc(CSCCC(N)=NS(N)(=O)=O)cs1
Response: 689.4

Prompt: Cool, now CCOC(=O)CCC(=O)O[C@H]1[C@H](O[C@@H]2[C@@H](C)[C@H](O[C@H]3C[C@@](C)(OC)[C@@H](O)[C@H](C)O3)[C@@H](C)C(=O)O[C@H](CC)[C@@](C)(O)[C@H](O)[C@@H](C)C(=O)[C@H](C)C[C@@]2(C)O)O[C@H](C)C[C@@H]1N(C)C [ERYTHROMYCIN ETHYLSUCCINATE]
Response: 690

###

Entries annotated with measured AST
Organism: Rattus norvegicus
Assay: Open TG-GATES - Regimen: Single
Format: toxicity, organism-based, Sprague-Dawley
Set-up: regimen Single, gender Male, age 6 weeks
Settings: in vivo, po, 300 mg/kg, 9 h, tissue Plasma, route gavage, dose level Middle
The figure you give is taken to be in IU/L; do not add the unit.

Reference set (3 entries):
INSERT INTO assay_data (compound, result_type, result_value) VALUES
  ('CCOC(=O)CCC(=O)O[C@H]1[C@H](O[C@@H]2[C@@H](C)[C@H](O[C@H]3C[C@@](C)(OC)[C@@H](O)[C@H](C)O3)[C@@H](C)C(=O)O[C@H](CC)[C@@](C)(O)[C@H](O)[C@@H](C)C(=O)[C@H](C)C[C@@]2(C)O)O[C@H](C)C[C@@H]1N(C)C [ERYTHROMYCIN ETHYLSUCCINATE]', 'AST', 62.6),
  ('COC1=CC(=O)C[C@@H](C)[C@]12Oc1c(Cl)c(OC)cc(OC)c1C2=O [GRISEOFULVIN]', 'AST', 63),
  ('NC(N)=Nc1nc(CSCCC(N)=NS(N)(=O)=O)cs1 [FAMOTIDINE]', 'AST', 59);

Next, consider the following compound.
Prompt: Looking for the measured AST of COc1ccc2[nH]c([S+]([O-])Cc3ncc(C)c(OC)c3C)nc2c1 (centres undefined) [OMEPRAZOLE] , can you help?
Response: 62.8

###

Each entry below carries its recorded LDH.
Species: Rattus norvegicus
Assay: Open TG-GATES - Regimen: Single
Assay type: toxicity, organism-based, Sprague-Dawley
Parameters: regimen Single, gender Male, age 6 weeks
Conditions: in vivo, po, 100 mg/kg, 6 h, tissue Plasma, route gavage, dose level High
API: value field is a number in IU/L; no unit string.

Below, each entry is followed by its recorded LDH result.
INSERT INTO measurements (molecule, result_type, result_value) VALUES
  ('CN(C)CCCN1c2ccccc2CCc2ccc(Cl)cc21', 'LDH', 103.8),
  ('CC1=C(/C=C/C(C)=C/C=C/C(C)=C/CO)C(C)(C)CCC1', 'LDH', 212.4),
  ('CN(C)CCN(Cc1cccs1)c1ccccn1', 'LDH', 259.2);

Switching to the query record.
Prompt: Which LDH reading was recorded for the molecule CN(C)CCCN1c2ccccc2CCc2ccccc21 ?
Response: 62.8

###

Species on record: Rattus norvegicus
Experiment: Open TG-GATES - Regimen: Daily Repeat
Type: toxicity, organism-based, Sprague-Dawley
Set-up: regimen Daily Repeat, gender Male, age 6 weeks
Settings: in vivo, po, 1000 mg/kg, 72 h, tissue Kidney, route gavage, dose level High, time 3 day
RESULT_TYPE: KIDNEY_TOTAL (g)
Entry rule: numbers only, all in g.

Reference set, count: 5
INSERT INTO measurements (compound, display_unit, result_value) VALUES
  ('CCOC(=O)CCC(=O)O[C@H]1[C@H](O[C@@H]2[C@@H](C)[C@H](O[C@H]3C[C@@](C)(OC)[C@@H](O)[C@H](C)O3)[C@@H](C)C(=O)O[C@H](CC)[C@@](C)(O)[C@H](O)[C@@H](C)C(=O)[C@H](C)C[C@@]2(C)O)O[C@H](C)C[C@@H]1N(C)C [ERYTHROMYCIN ETHYLSUCCINATE]', 'g', 2),
  ('NC(N)=Nc1nc(CSCCC(N)=NS(N)(=O)=O)cs1', 'g', 2),
  ('COC1=CC(=O)C[C@@H](C)[C@]12Oc1c(Cl)c(OC)cc(OC)c1C2=O', 'g', 2),
  ('COc1ccc2[nH]c([S+]([O-])Cc3ncc(C)c(OC)c3C)nc2c1 (stereo unspecified)', 'g', 1.9),
  ('CCOc1ccc(NC(=O)CC(C)O)cc1 (stereo unspecified)', 'g', 2.1);

Next:
Prompt: Quick one: KIDNEY_TOTAL of CC(C)OC(=O)C(C)(C)Oc1ccc(C(=O)c2ccc(Cl)cc2)cc1 [FENOFIBRATE] ?
Response: 1.9

Each recorded value in this set is attributed to ChEMBL document CHEMBL3885861.
